Just for reference, ChEMBL document CHEMBL2331421 is where these values come from.

SYSTEM UNDER TEST: CYP3A4 (Homo sapiens, UniProt P08684)
Sequence (P08684 whole entry): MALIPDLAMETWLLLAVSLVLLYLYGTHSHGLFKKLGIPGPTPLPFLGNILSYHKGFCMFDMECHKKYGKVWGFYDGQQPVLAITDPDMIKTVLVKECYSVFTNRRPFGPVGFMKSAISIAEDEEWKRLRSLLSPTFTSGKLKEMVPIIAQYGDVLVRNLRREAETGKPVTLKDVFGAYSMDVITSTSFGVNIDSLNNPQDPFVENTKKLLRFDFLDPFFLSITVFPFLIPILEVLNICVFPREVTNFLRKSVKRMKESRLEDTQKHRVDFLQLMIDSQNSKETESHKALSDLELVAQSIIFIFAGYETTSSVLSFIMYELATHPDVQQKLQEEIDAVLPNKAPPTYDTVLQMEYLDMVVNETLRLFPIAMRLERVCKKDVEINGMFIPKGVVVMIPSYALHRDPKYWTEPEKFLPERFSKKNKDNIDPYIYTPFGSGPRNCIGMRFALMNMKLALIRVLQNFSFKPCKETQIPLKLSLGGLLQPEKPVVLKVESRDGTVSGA
METHOD DESCRIPTION: Inhibition of CYP3A4 (unknown origin) at 10 uM relative to control
Assay type: ADME
MEASURE: inhibition at 10 µM (%)

[[record]]
compound = "COc1cc(-c2cn[nH]c2)cc2c(=O)[nH]c([C@H](N)Cc3cccc(F)c3)nc12"
measure = "inhibition at 10 µM"
value_unit = "%"
result_value = 63


[P] COc1cc(-c2cn[nH]c2)cc2c(=O)[nH]c(C(N)c3cccc(Cl)c3)nc12 (stereo not given)
[Q] COc1ccc(C[C@H](N)c2nc3ccc(-c4cn[nH]c4)cc3c(=O)[nH]2)cc1
Incoming: Please let me know which one, P or Q , has a lower measured inhibition at 10 µM value. Your choice should be expressed through its label.
Outgoing: Q
(Q: 53%, P: 80%)

[1] NCc1ccc(C(=O)NC(c2ccc(Cl)cc2)c2nc3ccc(-c4cn[nH]c4)cc3c(=O)[nH]2)cc1 (stereo not given)
[2] N[C@H](Cc1ccc(F)cc1)c1nc2ccc(-c3cn[nH]c3)cc2c(=O)[nH]1
Incoming: Please let me know which one, 1 or 2 , has a lower measured inhibition at 10 µM value. Your choice should be expressed through its label.
Outgoing: 2
(2: 37%, 1: 63%)

###

SYSTEM UNDER TEST: UniProt:P11712
Sequence (P11712 whole entry): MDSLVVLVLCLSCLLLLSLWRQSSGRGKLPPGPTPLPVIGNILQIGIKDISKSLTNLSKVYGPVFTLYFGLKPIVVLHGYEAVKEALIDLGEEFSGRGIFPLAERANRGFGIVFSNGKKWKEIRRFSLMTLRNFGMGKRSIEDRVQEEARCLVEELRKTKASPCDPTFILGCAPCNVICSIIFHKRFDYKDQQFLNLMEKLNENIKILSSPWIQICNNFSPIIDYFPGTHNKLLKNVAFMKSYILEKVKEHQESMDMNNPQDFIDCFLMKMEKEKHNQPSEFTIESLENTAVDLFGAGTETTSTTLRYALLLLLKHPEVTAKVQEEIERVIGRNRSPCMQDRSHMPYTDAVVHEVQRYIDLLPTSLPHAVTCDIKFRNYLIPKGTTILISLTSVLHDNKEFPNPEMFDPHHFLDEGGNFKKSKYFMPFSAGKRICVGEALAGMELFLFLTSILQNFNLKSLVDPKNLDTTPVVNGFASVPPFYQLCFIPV
METHOD DESCRIPTION: Inhibition of CYP2C9 (unknown origin) at 10 uM relative to control
Assay type: ADME
MEASURE: inhibition at 10 µM (%)

Sample answers from the record:
[[record]]
compound = "N[C@H](Cc1ccc(F)cc1)c1nc2ccc(-c3cn[nH]c3)cc2c(=O)[nH]1"
measure = "inhibition at 10 µM"
value_unit = "%"
result_value = 36

[[record]]
compound = "COc1ccc(C(N)c2nc3ccc(-c4cn[nH]c4)cc3c(=O)[nH]2)cc1 (stereo not given)"
measure = "inhibition at 10 µM"
value_unit = "%"
result_value = 37


[a] NCc1ccc(C(=O)NC(c2ccc(Cl)cc2)c2nc3ccc(-c4cn[nH]c4)cc3c(=O)[nH]2)cc1 (stereo not given)
[b] COc1ccc(C[C@H](N)c2nc3ccc(-c4cn[nH]c4)cc3c(=O)[nH]2)cc1
Incoming: In the pair a and b , the larger recorded inhibition at 10 µM belongs to which? Your choice should be expressed through its label.
Outgoing: a

###

SYSTEM UNDER TEST: CYP1A2 (Homo sapiens)
Sequence (P05177 whole entry): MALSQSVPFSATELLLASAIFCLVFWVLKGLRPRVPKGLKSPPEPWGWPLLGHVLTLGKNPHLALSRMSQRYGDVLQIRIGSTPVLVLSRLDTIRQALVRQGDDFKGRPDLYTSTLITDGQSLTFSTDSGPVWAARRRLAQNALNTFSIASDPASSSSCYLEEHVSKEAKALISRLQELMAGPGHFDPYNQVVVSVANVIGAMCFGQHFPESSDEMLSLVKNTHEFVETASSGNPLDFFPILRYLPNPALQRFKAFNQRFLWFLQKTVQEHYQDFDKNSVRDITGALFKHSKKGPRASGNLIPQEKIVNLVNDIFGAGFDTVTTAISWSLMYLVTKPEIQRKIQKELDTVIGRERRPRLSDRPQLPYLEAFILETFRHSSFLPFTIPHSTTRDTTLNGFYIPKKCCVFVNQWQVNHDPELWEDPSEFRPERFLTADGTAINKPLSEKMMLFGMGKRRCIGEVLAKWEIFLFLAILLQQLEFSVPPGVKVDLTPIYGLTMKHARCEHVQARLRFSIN
METHOD DESCRIPTION: Inhibition of CYP1A2 (unknown origin) at 10 uM relative to control
Format: ADME
MEASURE: inhibition at 10 µM (%)

Sample answers from the record:
[[record]]
molecule = "NC(c1cccc(Cl)c1)c1nc2ccc(-c3cn[nH]c3)cc2c(=O)[nH]1 (stereo not given)"
result_value = 18

[[record]]
molecule = "COc1cc(-c2cn[nH]c2)cc2c(=O)[nH]c([C@H](N)Cc3cccc(F)c3)nc12"
result_value = 34


[1] CN(C)c1nc([C@@H]2CNC[C@H]2c2ccccc2)nc2ccc(-c3cn[nH]c3)cc12
[2] COc1ccc(C(N)c2nc3ccc(-c4cn[nH]c4)cc3c(=O)[nH]2)cc1 (stereo not given)
Incoming: Please let me know which one, 1 or 2 , has a lower measured inhibition at 10 µM value. Your choice should be expressed through its label.
Outgoing: 2

###

SYSTEM UNDER TEST: Rho-associated protein kinase 2 (Homo sapiens)
Sequence (O75116 whole entry): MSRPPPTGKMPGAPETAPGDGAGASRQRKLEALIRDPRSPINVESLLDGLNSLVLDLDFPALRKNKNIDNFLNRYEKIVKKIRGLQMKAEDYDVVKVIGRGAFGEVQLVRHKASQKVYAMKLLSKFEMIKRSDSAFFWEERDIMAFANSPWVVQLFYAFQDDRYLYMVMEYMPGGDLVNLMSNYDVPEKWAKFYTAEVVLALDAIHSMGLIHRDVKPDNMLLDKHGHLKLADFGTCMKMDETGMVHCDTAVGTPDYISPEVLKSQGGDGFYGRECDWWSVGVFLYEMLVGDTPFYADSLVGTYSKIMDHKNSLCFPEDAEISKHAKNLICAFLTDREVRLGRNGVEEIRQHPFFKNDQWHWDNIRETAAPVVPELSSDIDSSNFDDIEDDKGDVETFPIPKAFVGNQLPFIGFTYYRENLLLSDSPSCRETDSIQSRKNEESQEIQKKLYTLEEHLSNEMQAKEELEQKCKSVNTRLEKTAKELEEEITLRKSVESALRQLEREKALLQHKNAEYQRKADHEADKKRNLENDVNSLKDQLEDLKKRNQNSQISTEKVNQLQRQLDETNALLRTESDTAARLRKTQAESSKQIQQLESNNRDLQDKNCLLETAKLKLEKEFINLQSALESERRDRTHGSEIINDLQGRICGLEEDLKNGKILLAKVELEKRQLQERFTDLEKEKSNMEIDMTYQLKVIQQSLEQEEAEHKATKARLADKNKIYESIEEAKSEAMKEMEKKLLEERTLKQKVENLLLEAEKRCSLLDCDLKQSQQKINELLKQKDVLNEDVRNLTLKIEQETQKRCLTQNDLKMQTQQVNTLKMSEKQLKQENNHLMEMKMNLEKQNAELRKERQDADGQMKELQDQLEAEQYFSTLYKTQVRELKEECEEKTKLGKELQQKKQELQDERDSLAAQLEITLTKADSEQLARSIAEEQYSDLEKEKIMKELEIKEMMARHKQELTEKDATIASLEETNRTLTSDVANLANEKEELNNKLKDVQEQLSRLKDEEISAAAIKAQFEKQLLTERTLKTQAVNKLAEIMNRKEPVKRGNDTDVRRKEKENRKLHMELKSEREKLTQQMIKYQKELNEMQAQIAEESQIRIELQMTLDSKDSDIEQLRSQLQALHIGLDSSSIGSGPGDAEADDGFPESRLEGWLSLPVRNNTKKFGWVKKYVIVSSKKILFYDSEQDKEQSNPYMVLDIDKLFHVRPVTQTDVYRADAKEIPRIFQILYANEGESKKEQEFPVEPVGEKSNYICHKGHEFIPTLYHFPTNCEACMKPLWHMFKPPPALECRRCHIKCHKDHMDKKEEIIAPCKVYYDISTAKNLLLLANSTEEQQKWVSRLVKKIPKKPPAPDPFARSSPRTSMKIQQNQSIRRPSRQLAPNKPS
METHOD DESCRIPTION: Inhibition of human recombinant 6-His-tagged ROCK2 expressed in baculovirus-infected Sf9 cells using LCB-AKRRRLSSLRA-NH2 as substrate after 25 mins by TR-FRET assay
MEASURE: IC50 (nM)

Sample answers from the record:
[[record]]
compound = "CN(CCO)c1nc([C@H](N)Cc2cccc(F)c2)nc2ccc(-c3cn[nH]c3)cc12"
result_value = 27

[[record]]
compound = "COc1cc(-c2cn[nH]c2)cc2c(=O)[nH]c(C(N)c3ccc(Cl)cc3)nc12 (stereo not given)"
result_value = 9

[[record]]
compound = "COc1ccc([C@@H]2CN(Cc3ccccc3)C[C@H]2c2nc3ccc(-c4cn[nH]c4)cc3c(=O)[nH]2)cc1"
result_value = 88

[[record]]
compound = "N[C@H](Cc1ccc(Cl)cc1)c1nc2ccc(-c3cn[nH]c3)cc2c(=O)[nH]1"
result_value = 4

[[record]]
compound = "O=c1[nH]c([C@@H]2CN(Cc3ccccc3)C[C@H]2c2cccc(F)c2)nc2ccc(-c3cn[nH]c3)cc12"
result_value = 225


[1] CCOc1ccc(C[C@H](N)c2nc3ccc(-c4cn[nH]c4)cc3c(=O)[nH]2)cc1
[2] Fc1ccc([C@@H]2CNC[C@H]2c2nc(N3CCC3)c3cc(-c4cn[nH]c4)ccc3n2)cc1
Incoming: Please let me know which one, 1 or 2 , has a lower measured IC50 value. Your choice should be expressed through its label.
Outgoing: 1

[I] O=c1[nH]c([C@@H]2CN(Cc3ccccc3)C[C@H]2c2ccccc2F)nc2ccc(-c3cn[nH]c3)cc12
[II] COc1ccc(C(N)c2nc3ccc(-c4c[nH]nc4C)cc3c(=O)[nH]2)cc1 (stereo not given)
Incoming: In the pair I and II , the larger recorded IC50 belongs to which? Your choice should be expressed through its label.
Outgoing: II
(II: 98 nM, I: 49 nM)

###

IC50 values recorded for Rho-associated protein kinase 1 (Homo sapiens)
MEASURE: IC50 (nM)

[I] NC(c1cccc(Cl)c1)c1nc2ccc(-c3cn[nH]c3)cc2c(=O)[nH]1 (centres undefined)
[II] COc1cc(-c2cn[nH]c2)cc2c(=O)[nH]c([C@H](N)Cc3cccc(F)c3)nc12
Incoming: In the pair I and II , the larger recorded IC50 belongs to which? Your choice should be expressed through its label.
Outgoing: I
(I: 15 nM, II: 7 nM)

[A] COc1ccc([C@@H]2CN(C)C[C@H]2c2nc3ccc(-c4cn[nH]c4)cc3c(=O)[nH]2)cc1
[B] O=c1[nH]c([C@@H]2CNC[C@H]2c2ccccc2)nc2ccc(-c3cn[nH]c3)cc12
Incoming: In the pair A and B , the larger recorded IC50 belongs to which? Your choice should be expressed through its label.
Outgoing: A

###

SYSTEM UNDER TEST: CYP3A4 (Homo sapiens)
METHOD DESCRIPTION: Inhibition of CYP3A4 (unknown origin) at 10 uM relative to control
Format: ADME
MEASURE: inhibition at 10 µM (%)

Sample answers from the record:
[[record]]
compound = "COc1ccc([C@@H]2CN(C)C[C@H]2c2nc3ccc(-c4cn[nH]c4)cc3c(=O)[nH]2)cc1"
measure = "inhibition at 10 µM"
result_value = -3

[[record]]
compound = "CN(C)CC(=O)NC(c1ccc(Cl)cc1)c1nc2ccc(-c3cn[nH]c3)cc2c(=O)[nH]1 (centres undefined)"
measure = "inhibition at 10 µM"
result_value = 23

[[record]]
compound = "N[C@@H](Cc1ccc(Cl)cc1)c1nc2ccc(-c3cn[nH]c3)cc2c(=O)[nH]1"
measure = "inhibition at 10 µM"
result_value = 42

[[record]]
compound = "NC(c1cccc(Cl)c1)c1nc2ccc(-c3cn[nH]c3)cc2c(=O)[nH]1 (centres undefined)"
measure = "inhibition at 10 µM"
result_value = 75

[[record]]
compound = "COc1ccc(C(N)c2nc3ccc(-c4cn[nH]c4)cc3c(=O)[nH]2)cc1 (centres undefined)"
measure = "inhibition at 10 µM"
result_value = 40


[A] CN(C)c1nc([C@@H]2CNC[C@H]2c2ccccc2)nc2ccc(-c3cn[nH]c3)cc12
[B] O=c1[nH]c([C@@H]2CNC[C@H]2c2ccc(Cl)cc2)nc2ccc(-c3cn[nH]c3)cc12
Incoming: Please let me know which one, A or B , has a lower measured inhibition at 10 µM value. Your choice should be expressed through its label.
Outgoing: B

[a] O=c1[nH]c([C@@H]2CNC[C@H]2c2ccccc2)nc2ccc(-c3cn[nH]c3)cc12
[b] N[C@@H](Cc1ccc(F)cc1)c1nc2ccc(-c3cn[nH]c3)cc2c(=O)[nH]1
Incoming: In the pair a and b , the larger recorded inhibition at 10 µM belongs to which? Your choice should be expressed through its label.
Outgoing: b
(b: 31%, a: 19%)

###

METHOD DESCRIPTION: Half life in human liver microsomes
Format: ADME, Microsome
MEASURE: half-life (min)

Sample answers from the record:
[[record]]
molecule = "CN(C)CC(=O)NC(c1ccc(Cl)cc1)c1nc2ccc(-c3cn[nH]c3)cc2c(=O)[nH]1 (centres undefined)"
measure = "half-life"
result_value = 15

[[record]]
molecule = "O=c1[nH]c([C@@H]2CNC[C@H]2c2ccc(Cl)cc2)nc2ccc(-c3cn[nH]c3)cc12"
measure = "half-life"
result_value = 75

[[record]]
molecule = "O=c1[nH]c([C@@H]2CNC[C@H]2c2ccccc2)nc2ccc(-c3cn[nH]c3)cc12"
measure = "half-life"
result_value = 35


[A] COc1cc(-c2cn[nH]c2)cc2c(=O)[nH]c([C@H](N)Cc3cccc(F)c3)nc12
[B] COc1ccc([C@@H]2CN(C)C[C@H]2c2nc3ccc(-c4cn[nH]c4)cc3c(=O)[nH]2)cc1
[C] NCc1ccc(C(=O)NC(c2ccc(Cl)cc2)c2nc3ccc(-c4cn[nH]c4)cc3c(=O)[nH]2)cc1 (centres undefined)
[D] COc1ccc(C(N)c2nc3ccc(-c4cn[nH]c4)cc3c(=O)[nH]2)cc1 (centres undefined)
Incoming: Hey, quick one: sort these by half-life, largest value first please. List each label, following the requested order.
Outgoing: C, D, A, B
(C: 420 min, D: 64 min, A: 36 min, B: 21 min)
